- assay-details: Volume of distribution at steady state in preterm neonates with septicemia or invasive infections with gestational age of less than 32 weeks at 50000 U/kg, iv administered every 12 hrs
- Assay type: ADME, organism-based
- assay-setup: human, in vivo, read-out: Vdss
reported-metric: Vd (L)
Express the result in L but write the number alone.

Given the entry CC1(C)S[C@@H]2[C@H](NC(=O)Cc3ccccc3)C(=O)N2[C@H]1C(=O)O [PENICILLIN G] , report its measured Vd.
0.54

---

- assay-details: Clearance in iv dosed neonates with gestational age of 27 to 40 weeks
- Type: ADME, organism-based
- assay-setup: human, in vivo
reported-metric: clearance
Be sure to follow the number with its unit.

May I ask what clearance has been recorded for CC1(C)S[C@@H]2[C@H](NC(=O)Cc3ccccc3)C(=O)N2[C@H]1C(=O)O [PENICILLIN G] ?
2 mL/min/kg
